Molecular target: MALT-1 (Isoform 1) (Homo sapiens, UniProt Q9UDY8)
Construct: using recombinant MALT-1 (Isoform 1, aa-840) generated in house; made in house
Sequence (Q9UDY8 1-824): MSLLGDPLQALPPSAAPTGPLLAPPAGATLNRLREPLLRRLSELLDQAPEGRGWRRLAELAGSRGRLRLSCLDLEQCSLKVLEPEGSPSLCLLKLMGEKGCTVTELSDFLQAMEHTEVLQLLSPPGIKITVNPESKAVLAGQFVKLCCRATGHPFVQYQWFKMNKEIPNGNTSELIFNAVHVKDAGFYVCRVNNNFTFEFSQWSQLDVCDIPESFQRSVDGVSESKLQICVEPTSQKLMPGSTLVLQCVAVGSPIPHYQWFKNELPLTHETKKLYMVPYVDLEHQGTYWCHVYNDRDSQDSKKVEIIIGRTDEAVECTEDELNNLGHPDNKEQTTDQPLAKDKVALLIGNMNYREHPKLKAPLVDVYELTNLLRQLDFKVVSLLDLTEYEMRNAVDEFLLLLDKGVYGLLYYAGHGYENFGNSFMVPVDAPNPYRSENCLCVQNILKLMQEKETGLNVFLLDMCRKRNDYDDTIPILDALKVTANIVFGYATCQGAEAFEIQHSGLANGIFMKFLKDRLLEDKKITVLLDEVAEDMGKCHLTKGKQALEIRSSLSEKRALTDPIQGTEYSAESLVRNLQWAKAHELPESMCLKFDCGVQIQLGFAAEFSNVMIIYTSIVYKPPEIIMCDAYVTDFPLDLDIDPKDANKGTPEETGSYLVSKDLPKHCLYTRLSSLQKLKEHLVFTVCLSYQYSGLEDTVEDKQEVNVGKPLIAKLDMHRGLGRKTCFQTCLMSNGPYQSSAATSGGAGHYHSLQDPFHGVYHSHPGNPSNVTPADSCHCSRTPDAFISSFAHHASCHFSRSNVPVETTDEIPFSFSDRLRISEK
Assay: MALT-1 (Isoform 1) enzyme fluorescent biochemical assay
Conditions: test compound 1 μM; recombinant MALT-1 1.5 nM; read-out: Percent Inhibition (1 μM)
Please provide measured inhibition at 1 µM for the entries that follow.

{"compound": "Cc1c(F)cccc1C(C)n1ncc(C(=O)Nc2cnc(-n3nccn3)c(C#N)c2)c1C(F)(F)F (centres unmarked) [Compound 52]", "assayed target": "MALT-1 (Isoform 1) (Homo sapiens, UniProt Q9UDY8)", "inhibition at 1 µM": "100%"}
{"compound": "CC(c1cccc(Cl)c1)n1ncc(C(=O)Nc2cnc(-n3nccn3)c(Cl)c2)c1C(F)(F)F (centres unmarked) [Compound 49]", "assayed target": "MALT-1 (Isoform 1) (Homo sapiens, UniProt Q9UDY8)", "inhibition at 1 µM": "88%"}
{"compound": "N#Cc1cc(NC(=O)c2cnn(Cc3cccc(F)c3Br)c2C(F)(F)F)cnc1-n1nccn1 [Compound 38]", "assayed target": "MALT-1 (Isoform 1) (Homo sapiens, UniProt Q9UDY8)", "inhibition at 1 µM": "100%"}
{"compound": "N#Cc1cc(NC(=O)c2cnn(Cc3ccc(Cl)cc3)c2C(F)(F)F)cnc1-n1nccn1 [Compound 9]", "assayed target": "MALT-1 (Isoform 1) (Homo sapiens, UniProt Q9UDY8)", "inhibition at 1 µM": "55%"}

Please look at the items below and tell me inhibition at 1 µM for each one, in order.
1. N#Cc1cc(NC(=O)c2cnn(Cc3cccc(F)c3C(F)F)c2C(F)(F)F)cnc1-n1nccn1 [Compound 56]
2. Cc1c(F)cccc1Cn1ncc(C(=O)Nc2cnc(-n3nccn3)c(F)c2)c1C(F)(F)F [Compound 30]
3. N#Cc1cc(NC(=O)c2cnn(Cc3ccncc3)c2C(F)(F)F)cnc1-n1nccn1 [Compound 13]
4. O=C(Nc1cc(C(F)(F)F)ncn1)c1cnn(Cc2cccc(F)c2Cl)c1C(F)(F)F [Compound 44]

77%
97%
40%
38%
